tested on: Bacillus cereus; test: Antibacterial activity against Bacillus cereus MTCC 8372 assessed as concentration required to completely destroy test microorganisms after 24 hrs; format: functional; details: MTCC 8372, 24 h
Please respond with Met when measured MBC is strictly beneath 200 µg/mL, and with Not met in all other cases.

structure | cat
CCOC(=O)c1c(-c2ccccc2)nn(-c2ccccc2)c1Cn1c(S)nc2ccc(OC(F)F)cc21 | Met
CN(C)[C@@H]1C(O)=C(C(N)=O)C(=O)[C@@]2(O)C(O)=C3C(=O)c4c(O)cccc4[C@@](C)(O)[C@H]3C[C@@H]12 | Met
CCOC(=O)c1c(-c2ccccc2)nn(-c2ccccc2)c1COCc1c(-c2ccc(F)cc2)nc(N(C)S(C)(=O)=O)nc1C(C)C | Met
CCOC(=O)c1c(-c2ccccc2)nn(-c2ccccc2)c1COc1ccc(C=O)cc1 | Not met
CCOC(=O)c1c(-c2ccccc2)nn(-c2ccccc2)c1Cn1cnc2cc(C)ccc21 | Not met
CCOC(=O)c1c(-c2ccccc2)nn(-c2ccccc2)c1Cn1c(S)nc2ccccc21 | Met
CCOC(=O)c1c(-c2ccccc2)nn(-c2ccccc2)c1Cn1cnc2ccccc21 | Not met
CCOC(=O)c1c(-c2ccccc2)nn(-c2ccccc2)c1COc1ccc(C=O)cc1OC | Not met
CCOC(=O)c1c(-c2ccccc2)nn(-c2ccccc2)c1COCc1ccccc1 | Not met
CCOC(=O)c1c(-c2ccccc2)nn(-c2ccccc2)c1COc1ccccc1C=O | Not met
CCOC(=O)c1c(-c2ccccc2)nn(-c2ccccc2)c1Cn1c(Cl)nc2ccccc21 | Not met

###

Listed here are molecules together with their documented zone of inhibition at 50 µg/mL.
tested on: Escherichia coli; assay: Antibacterial activity against Escherichia coli MTCC 724 at 50 ug/ml after 24 hrs by disc diffusion method; type: functional; settings: MTCC 724, 24 h, read-out: IZ

structure | zone of inhibition at 50 µg/mL (mm)
CCOC(=O)c1c(-c2ccccc2)nn(-c2ccccc2)c1COCc1c(-c2ccc(F)cc2)nc(N(C)S(C)(=O)=O)nc1C(C)C | 3
CCOC(=O)c1c(-c2ccccc2)nn(-c2ccccc2)c1Cn1c(Cl)nc2ccccc21 | 9
CCOC(=O)c1c(-c2ccccc2)nn(-c2ccccc2)c1COc1ccc(C=O)cc1 | 10
CCOC(=O)c1c(-c2ccccc2)nn(-c2ccccc2)c1COc1ccccc1C=O | 3
CCOC(=O)c1c(-c2ccccc2)nn(-c2ccccc2)c1Cn1c(S)nc2ccc(OC(F)F)cc21 | 20

###

Listed here are compounds together with their documented zone of inhibition at 100 µg/mL.
test system: Aspergillus flavus; test: Antifungal activity against Aspergillus flavus MTCC 873 at 100 ug/ml after 24 hrs by disc diffusion method; assay type: functional; conditions: MTCC 873, 24 h, read-out: IZ

structure | zone of inhibition at 100 µg/mL
CCOC(=O)c1c(-c2ccccc2)nn(-c2ccccc2)c1Cn1c(S)nc2ccc(OC(F)F)cc21 | 20 mm
CCOC(=O)c1c(-c2ccccc2)nn(-c2ccccc2)c1COc1ccc(C=O)cc1OC | 9 mm
CCOC(=O)c1c(-c2ccccc2)nn(-c2ccccc2)c1COc1ccccc1C=O | 5 mm
